The reported numbers originate from patent US8791132B2.

# testTarget: human recombinant adrenergic α1D receptor (Homo sapiens, UniProt P25100)
# Construct: expressed in transfected cells; host or cells: HEK-293
# Sequence (P25100 1-572): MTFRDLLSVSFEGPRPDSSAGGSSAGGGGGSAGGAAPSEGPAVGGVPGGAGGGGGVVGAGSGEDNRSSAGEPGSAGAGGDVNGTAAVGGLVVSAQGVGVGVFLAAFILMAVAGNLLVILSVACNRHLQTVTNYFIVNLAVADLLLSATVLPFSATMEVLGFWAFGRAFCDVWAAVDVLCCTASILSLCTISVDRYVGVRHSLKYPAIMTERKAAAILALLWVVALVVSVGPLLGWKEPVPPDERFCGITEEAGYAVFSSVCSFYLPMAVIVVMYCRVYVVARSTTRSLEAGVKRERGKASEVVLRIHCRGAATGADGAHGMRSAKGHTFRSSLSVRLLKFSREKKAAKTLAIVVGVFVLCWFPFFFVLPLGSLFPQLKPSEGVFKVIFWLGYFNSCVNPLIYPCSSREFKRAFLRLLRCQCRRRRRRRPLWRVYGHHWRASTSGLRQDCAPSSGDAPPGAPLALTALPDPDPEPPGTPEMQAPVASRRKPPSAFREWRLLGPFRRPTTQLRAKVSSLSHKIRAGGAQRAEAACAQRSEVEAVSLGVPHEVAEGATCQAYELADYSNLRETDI
# experimentNotes: Radioligand binding, adrenergic α1D ([3H]Prazosin)
# measurementContext: read-out: Percentage inhibition of ligand binding, Adrenergic α1D (0.1 μM), compound at 0.1 μM; [3H]Prazosin; repeat datapoints each shown
# thresholds on inhibition at 0.1 µM define classes: lowest (below 30%), middle (30% to below 50%), highest (50% or more)

INPUT: Could you place Cc1ccc(CCn2c3c(c4cc(C)ccc42)CN(C)CC3)cc1 in its proper category? Many thanks.
OUTPUT: highest

INPUT: Lab log: Cc1ccc2c(c1)c1c(n2C2=C(c3ccc(C)s3)CCC2)CCN(C)C1 — assign inhibition at 0.1 µM category
OUTPUT: middle

INPUT: // return the class label for C/C(=C\n1c2c(c3cc(C)ccc31)C1CCC(C2)N1C)c1ccc(Cl)cc1Cl (stereo not drawn)
OUTPUT: lowest

INPUT: State the class of the compound shown: C/C(=C\n1c2c(c3cc(C)ccc31)C1CCCN1CC2)c1ccc(C)nc1 (stereo not drawn)
OUTPUT: highest

INPUT: Band for Cc1ccc2c(c1)c1c(n2CC(C)(O)c2ccc(O)cc2)CCN(C)C1 (stereo not drawn) ?
OUTPUT: middle

INPUT: Form: Item = CCN1CCc2c(c3cc(C)ccc3n2CC(O)c2ccc(C)cc2)C1 (stereo not drawn) ; Class = ?
OUTPUT: middle

INPUT: Quick check: band for Cc1ccc2c(c1)c1c(n2/C=C(\F)c2ccncc2)CCN(C)C1
OUTPUT: middle

INPUT: Tag the class for C/C(=C\n1c2c(c3cc(C)ccc31)CCN(C)CC2)c1ccncc1
OUTPUT: middle

INPUT: Which bin should I file Cc1ccc2c(c1)c1c(n2CCc2ccccc2)CCN(C)C1 under?
OUTPUT: highest

INPUT: Hey, which category is C/C(=C\n1c2c(c3cc(C)ccc31)CN(C)CC2)c1ccnn1C in, do you know?
OUTPUT: lowest

INPUT: Please classify: Cc1ccc(C#Cn2c3c(c4cc(Cl)ccc42)C2CCC(C3)N2C)cn1 (stereo not drawn)
OUTPUT: lowest

INPUT: Which category does the recorded inhibition at 0.1 µM put CN1CCc2c(c3ccccc3n2CC(C)(O)c2ccncc2)C1 (stereo not drawn) in?
OUTPUT: highest

INPUT: Determine which band this compound sits in: CCC(O)(Cn1c2c(c3cc(Cl)ccc31)CN(C)CC2)c1ccc(F)cc1 (stereo not drawn)
OUTPUT: lowest

INPUT: Place this compound in its band: C/C(=C\n1c2c(c3cc(Cl)ccc31)C1CCC(C2)N1C)c1cccnc1 (stereo not drawn)
OUTPUT: lowest
